- Tested on: Staphylococcus aureus
- METHOD_SUMMARY: Antibacterial activity against Staphylococcus aureus ATCC 29213 assessed as bacterial growth inhibition incubated for 16 to 18 hrs by CLSI based susceptibility testing method
- Assay type: functional
- RECORDED_CONDITIONS: time 16-18 hrs
Below: a set of entries, each annotated with reported MIC.

{"columns": ["STRUCTURE_SMILES_STRING", "MEASUREMENT_QUALIFIER", "MIC / µg/mL"],
 "data": [
  ["Cc1nc(/N=C2\\NC(=O)/C(=C/c3cc(C)n(-c4ccc(C#N)c(Cl)c4)c3C)S2)sc1C", ">", 64],
  ["Cc1ccc(-n2c(C)cc(/C=C3\\S/C(=N/c4nccs4)NC3=O)c2C)cc1", "=", 4],
  ["Cc1nc(/N=C2\\NC(=O)/C(=C/c3cc(C)n(-c4ccccc4O)c3C)S2)sc1C", ">", 64],
  ["COc1ccc(-n2c(C)cc(/C=C3\\S/C(=N/c4nccs4)NC3=O)c2C)cc1OC", "=", 4],
  ["COc1ccc(-n2c(C)cc(/C=C3\\S/C(=N/c4nc(C)c(C)s4)NC3=O)c2C)cc1OC", "=", 64]
]}
